Just for reference, patent US11259522B2 is where these values come from.

- Tested on: Aedes aegypti PRS Puerto Rican strain (synthetic pyrethroid resistant) L3 larvae
- Procedure text: Mosquito larval dose response assay, PRS strain
- Condition set: 72 h, read-out: Lethal Concentration (LC50) PRS Strain
The following compounds are listed with their measured LC50 values.
Just the number plus its unit, please.

- Compound: "CC(C)C(=O)C1C(=O)C(C)(C)C(=O)C(C)(C)C1=O"
  Value reported: "39.7 µg/mL"
- Compound: "CC1(C)[C@H](C(=O)O[C@H](C#N)c2cccc(Oc3ccccc3)c2)[C@@H]1C=C(Br)Br [Deltamethrin, deltamethrin, reference compound]"
  Value reported: "0.0412 µg/mL"
- Compound: "CC1(C)C(C=C(Cl)Cl)C1C(=O)OCc1cccc(Oc2ccccc2)c1 (stereo not shown)"
  Value reported: "0.128 µg/mL"

Next:
Data point: CCOC(=O)CC(SP(=S)(OC)OC)C(=O)OCC (stereo not shown) ; LC50 = 0.127 µg/mL
